B1: minF1; a variant is named by its letters at N, in order (parent)
chain: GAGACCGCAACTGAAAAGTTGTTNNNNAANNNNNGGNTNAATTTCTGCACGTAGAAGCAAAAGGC

variants of: B1; assay: fraction ligated after 30 min (ligated reads / total reads); higher = more ligase activity; conditions: with F1*subA RNA substrate (template-directed ligation), 42 °C
property_label: fraction ligated
Provide a numeric answer; units are not to be included.

In the examples that follow, each entry is paired with its recorded fraction ligated.
macromolecule_sequence | fraction ligated
GAGACCGCAACTGAAAAGTTGTTATCGAAAGGATGGTTGAATTTCTGCACGTAGAAGCAAAAGGC [ATCGAGGATTG] | 0.00198
GAGACCGCAACTGAAAAGTTGTTATCAGAAATGAGGGTTAATTTCTGCACGTAGAAGCAAAAGGC [ATCAAATGAGT A28G] | 0.00227
GAGACCGCAACTGAAAAGTTGTTACAGAATGGAGGGTTGAATTTCTGCACGTAGAAGCAAAAGGC [ACAGTGGAGTG] | 0.00292

Given item GAGACCGCAACTGAAAAGTTGTTATAGAAATGGTGGGTTGATTTCTGCACGTAGAAGCAAAAGGC [ATAGATGGTGT A40G] , the value recorded as its fraction ligated is 0.00815

Given item GAGACCGCAACTGAAAAGTTGTTATCAAAATGGGGGTTGAATTTCTGCACGTAGAAGCAAAAGGC [ATCAATGGGTG] , the value recorded as its fraction ligated is 0.0045

Given item GAGACCGCAACTGAAAAGTTGTTATCGAAATGTGGGTTGAATTTCTGCACGTAGAAGCAAAAGGC [ATCGATGTGTG] , the value recorded as its fraction ligated is 0.00321

Given item GAGACCGCAACTGAAAAGTTGTTATCGAAATGATGGTTGAATTTCTGCACGTAGAAGCAAAAGGC [ATCGATGATTG] , the value recorded as its fraction ligated is 0.00246

Given item GAGACCGCAACTGAAAAGTTGTTATCAGAAATGGTGGTTAATTTCTGCACGTAGAAGCAAAAGGC [ATCAAATGGGT A28G G35T] , the value recorded as its fraction ligated is 0.00148

Given item GAGACCGCAACTGAAAAGTTGTTATCAGAAAGTGGGTTGAATTTCTGCACGTAGAAGCAAAAGGC [ATCAAAGTGTG A28G] , the value recorded as its fraction ligated is 0.00347

Given item GAGACCGCAACTGAAAAGTTGTATCAGAAATGATGGGTTGATTTCTGCACGTAGAAGCAAAAGGC [TCAGATGATGT T23A A40G] , the value recorded as its fraction ligated is 0.0104

Given item GAGACCGCAACTGAAAAGTTGTTATCAAAATGATGGTTGAATTTCTGCACGTAGAAGCAAAAGGC [ATCAATGATTG] , the value recorded as its fraction ligated is 0.00237
